The origin of these recorded values is patent US10472346B2.

System: Aβ42
Assay: Aβ42 IC50 assay (SHSYSY-APP cell-based screening, UCSD sandwich Aβ42 ELISA)
metric: IC50 (nM)

Below are worked cases with known answers.
Would you mind telling me what IC50 value was observed for CCc1cc(-c2ccc(-n3cnc(C)c3)c(OC)n2)nnc1N[C@@H](C)c1ccccc1 ?
5.5

Try COc1nc(-c2cc(C)c(N[C@@H](C)c3ccc(F)cc3F)nn2)ccc1-n1cnc(C)c1 next.
2.5

Try COc1nc(-c2cc(C)c(N[C@@H](C)c3ccccc3C)nn2)ccc1-n1cnc(C)c1 next.
3.3

Try COc1nc(-c2cc(C)c(NC(C)Cc3ccc(F)cc3)nn2)ccc1-n1cnc(C)c1 (racemic) next.
29

P. COc1nc(-c2cc(C)c(N[C@@H](C)c3ccc(F)c(C)c3)nn2)ccc1-n1cnc(C)c1
Q. COc1nc(-c2cc(C)c(N[C@@H](C)c3ccncc3)nn2)ccc1-n1cnc(C)c1
R. COc1nc(-c2cc(C)c(N[C@@H](C)c3ccccc3C(F)(F)F)nn2)ccc1-n1cnc(C)c1
S. COc1nc(-c2cc(C)c(NC(C)C)nn2)ccc1-n1cnc(C)c1
Put the entries in order of IC50, starting with the largest number. Answer by writing out the labels in the requested order.
Q, S, P, R
